Values compiled from patent US9790230B2.

molecular target: UniProtKB Q923Y9; experiment: Radioligand binding assay on rat TAAR1
Rule for this label: t means Ki is less than 80 nM; f means Ki is at least 80 nM.

Solved entries (count: 8):
chem_smiles=O=C(Nc1ccc([C@H]2O[C@@H]3CN[C@H]2C3)cc1)c1ccnc(C(F)(F)F)c1 assigned_class=f
chem_smiles=O=C(Nc1ccc(Cl)cc1)Nc1ccc([C@H]2O[C@@H]3CN[C@H]2C3)cc1 assigned_class=t
chem_smiles=O=C(Nc1ccc([C@@H]2O[C@H]3CN[C@@H]2C3)cc1)c1ccnc(C(F)(F)F)n1 assigned_class=f
chem_smiles=c1ccc([C@@H]2O[C@H]3CN[C@@H]2C3)nc1 assigned_class=f
chem_smiles=CC(C)n1nc(OCC(F)(F)F)cc1C(=O)Nc1ccc([C@@H]2O[C@H]3CN[C@@H]2C3)cc1 assigned_class=t
chem_smiles=O=C(Nc1ccc(C(F)(F)F)cc1)Nc1cccc([C@@H]2O[C@H]3CN[C@@H]2C3)c1 assigned_class=t
chem_smiles=FC(F)(F)c1nccc(Nc2ccc([C@H]3O[C@@H]4CN[C@H]3C4)cc2)n1 assigned_class=f
chem_smiles=O=C(Nc1ccc([C@H]2O[C@@H]3CN[C@H]2C3)cc1)c1ccc(OCC(F)(F)F)nc1 assigned_class=f

Does the reported Ki of the following compound sit strictly below 80 nM? `O=C(Nc1cccc([C@@H]2O[C@H]3CN[C@@H]2C3)c1)c1cccc(Cl)c1`
f

Does the reported Ki of the following compound sit strictly below 80 nM? `Cc1cn[nH]c1C(=O)Nc1ccc([C@H]2O[C@@H]3CN[C@H]2C3)cc1`
f

Does the reported Ki of the following compound sit strictly below 80 nM? `O=C(Nc1ccc([C@H]2O[C@@H]3CN[C@H]2C3)cc1)c1cnc(C2CC2)nc1`
f

Does the reported Ki of the following compound sit strictly below 80 nM? `O=C(Nc1ccc(Cl)cc1)Nc1cccc([C@@H]2O[C@H]3CN[C@@H]2C3)c1`
t

Does the reported Ki of the following compound sit strictly below 80 nM? `CCCc1c(Cl)c(C(=O)Nc2ccc([C@H]3O[C@@H]4CN[C@H]3C4)cc2)nn1C`
f

Does the reported Ki of the following compound sit strictly below 80 nM? `O=C(Nc1ccc([C@H]2O[C@@H]3CN[C@H]2C3)cc1)c1ccc(Cl)cc1`
f

Does the reported Ki of the following compound sit strictly below 80 nM? `CCOc1ccc(C(=O)Nc2ccc([C@H]3O[C@@H]4CN[C@H]3C4)cc2)cn1`
f

Does the reported Ki of the following compound sit strictly below 80 nM? `CCOc1n[nH]c(C(=O)Nc2ccc([C@@H]3O[C@H]4CN[C@@H]3C4)cc2)c1Cl`
t

----------
molecular target: mouse TAAR1 (Mus musculus (Mouse), UniProt Q923Y8); test: Radioligand binding assay on mouse TAAR1
Sequence (Q923Y8 whole entry): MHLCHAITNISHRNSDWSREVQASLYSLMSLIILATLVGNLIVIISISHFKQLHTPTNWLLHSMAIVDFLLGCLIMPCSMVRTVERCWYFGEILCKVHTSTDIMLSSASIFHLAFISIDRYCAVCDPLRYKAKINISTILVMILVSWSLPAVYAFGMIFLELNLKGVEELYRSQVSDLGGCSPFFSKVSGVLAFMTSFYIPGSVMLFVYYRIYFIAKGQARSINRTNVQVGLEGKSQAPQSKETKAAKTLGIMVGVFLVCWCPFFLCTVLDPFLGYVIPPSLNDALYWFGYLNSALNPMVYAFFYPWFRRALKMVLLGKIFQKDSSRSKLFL
pKi: −log10 of the molar value.
Label T when pKi is at or above 8; otherwise label F.

Solved entries (count: 4):
chem_smiles=O=C(Nc1ccc(Cl)cc1)Nc1ccc([C@H]2O[C@@H]3CN[C@H]2C3)cc1 target_system="mouse TAAR1 (Mus musculus (Mouse), UniProt Q923Y8)" assigned_class=T
chem_smiles=O=C(Nc1ccc(C(F)(F)F)cc1)Nc1cccc([C@@H]2O[C@H]3CN[C@@H]2C3)c1 target_system="mouse TAAR1 (Mus musculus (Mouse), UniProt Q923Y8)" assigned_class=F
chem_smiles=FC(F)(F)c1nccc(Nc2ccc([C@H]3O[C@@H]4CN[C@H]3C4)cc2)n1 target_system="mouse TAAR1 (Mus musculus (Mouse), UniProt Q923Y8)" assigned_class=F
chem_smiles=c1ccc([C@@H]2O[C@H]3CN[C@@H]2C3)nc1 target_system="mouse TAAR1 (Mus musculus (Mouse), UniProt Q923Y8)" assigned_class=F

Decide: pKi of `Fc1ccccc1[C@@H]1O[C@H]2CN[C@@H]1C2` >= 8?
F

----------
target: rat TAAR1 (Rattus norvegicus (Rat), UniProt Q923Y9); assay: Radioligand binding assay on rat TAAR1
Sequence (Q923Y9 whole entry): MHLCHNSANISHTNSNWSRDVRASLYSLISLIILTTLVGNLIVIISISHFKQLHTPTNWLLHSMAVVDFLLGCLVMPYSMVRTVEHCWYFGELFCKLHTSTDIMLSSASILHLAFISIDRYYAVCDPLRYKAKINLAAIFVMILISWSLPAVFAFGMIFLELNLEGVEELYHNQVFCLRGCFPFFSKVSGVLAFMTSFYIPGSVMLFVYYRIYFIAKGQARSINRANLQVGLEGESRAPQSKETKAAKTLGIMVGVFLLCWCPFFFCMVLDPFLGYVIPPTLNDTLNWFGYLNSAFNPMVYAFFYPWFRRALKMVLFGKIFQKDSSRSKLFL
measurement-name: pKi
Give bare numbers, as −log10 of the molar value.

Reference set, count: 8
chem_smiles=FC(F)(F)COc1nccc(Nc2ccc([C@@H]3O[C@H]4CN[C@@H]3C4)cc2)n1 quantitative_readout=6.72
chem_smiles=FC(F)(F)c1cnc(Nc2ccc([C@H]3O[C@@H]4CN[C@H]3C4)cc2)cn1 quantitative_readout=6.47
chem_smiles=O=C(Nc1ccc(F)cc1)c1ccc([C@H]2O[C@@H]3CN[C@H]2C3)cc1 quantitative_readout=7.34
chem_smiles=O=C(COCC(F)(F)F)Nc1ccc([C@H]2O[C@@H]3CN[C@H]2C3)cc1 quantitative_readout=5.40
chem_smiles=CCCCc1cc(C(=O)Nc2ccc([C@@H]3O[C@H]4CN[C@@H]3C4)cc2)[nH]n1 quantitative_readout=7.10
chem_smiles=CCOc1ccc(C(=O)Nc2ccc([C@@H]3O[C@H]4CN[C@@H]3C4)cc2)cn1 quantitative_readout=3.46
chem_smiles=FC(F)(F)c1ccc(Nc2ccc([C@H]3O[C@@H]4CN[C@H]3C4)cc2)nc1 quantitative_readout=7.19
chem_smiles=Cc1c(C2CC2)n[nH]c1C(=O)Nc1ccc([C@@H]2O[C@H]3CN[C@@H]2C3)cc1 quantitative_readout=6.82

Now consider a different compound.
For the compound `O=C(COCCC(F)(F)F)Nc1ccc([C@H]2O[C@@H]3CN[C@H]2C3)cc1` , give its reported pKi.
6.29

----------
molecular target: rat TAAR1 (Rattus norvegicus (Rat), UniProt Q923Y9); assay: Radioligand binding assay on rat TAAR1;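 also: membranes from HEK293 cells stably transfected with rat TAAR1, tritiated TAAR1 radioligand, 1 h incubation at 4 °C, nonspecific binding determined with excess unlabeled ligand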
Assignment: determine reported Ki for the given compounds.
One number for each entry, in nM.

Reference set, count: 3
compound="CCc1ncc(C(=O)Nc2ccc([C@@H]3O[C@H]4CN[C@@H]3C4)cc2)cn1 [Example 74]" measurement_name=Ki quantitative_readout=190
compound="O=C(Nc1ccc([C@@H]2O[C@H]3CN[C@@H]2C3)cc1)c1cnc(C2CC2)nc1 [Example 29]" measurement_name=Ki quantitative_readout=43.8
compound="FC(F)(F)Oc1ccc(CNc2ccc([C@H]3O[C@@H]4CN[C@H]3C4)cc2)cc1 [Example 52]" measurement_name=Ki quantitative_readout=194

Dear colleague, could you please provide Ki for the compounds listed below?
1. O=C(Nc1ccc([C@@H]2O[C@H]3CN[C@@H]2C3)cc1)c1ccnc(C(F)(F)F)c1 [Example 26]
2. Clc1ccc(Nc2ccc([C@@H]3O[C@H]4CN[C@@H]3C4)cc2)nc1 [Example 24]
3. Brc1ccc([C@H]2O[C@@H]3CN[C@H]2C3)cc1 [Example 53]
4. FC(F)(F)c1ccc(Nc2ccc([C@H]3O[C@@H]4CN[C@H]3C4)cc2)cn1 [Example 61]

1: 137; 2: 31.8; 3: 5.2; 4: 715

Dear colleague, could you please provide Ki for the compounds listed below?
1. CCOc1ccc(NC(=O)c2ccc([C@H]3O[C@@H]4CN[C@H]3C4)cc2)cn1 [Example 62]
2. FC(F)(F)c1cc(Nc2ccc([C@H]3O[C@@H]4CN[C@H]3C4)cc2)ccn1 [Example 35]
3. O=C(Nc1ccc(C(F)(F)F)cc1)c1ccc([C@H]2O[C@@H]3CN[C@H]2C3)cc1 [Example 59]
4. CCCc1n[nH]c(C(=O)Nc2ccc([C@H]3O[C@@H]4CN[C@H]3C4)cc2)c1Cl [Example 49]
5. O=C(Nc1ccc([C@@H]2O[C@H]3CN[C@@H]2C3)cc1)c1ccc(C(F)(F)F)nc1 [Example 72]
6. O=C(Nc1ccc([C@@H]2O[C@H]3CN[C@@H]2C3)cc1)c1ccc(C(F)(F)F)cn1 [Example 71]
7. CC(C)c1cc(C(=O)Nc2ccc([C@H]3O[C@@H]4CN[C@H]3C4)cc2)[nH]n1 [Example 43]

[107, 819, 1020, 37, 9.3, 13.5, 167]

----------
target: mouse TAAR1 (Mus musculus (Mouse), UniProt Q923Y8); assay: Radioligand binding assay on mouse TAAR1
Assignment: determine reported pKi for the given compounds.
Numbers only, as −log10 of the molar value.

chem_smiles=CCc1n[nH]c(C(=O)Nc2ccc([C@H]3O[C@@H]4CN[C@H]3C4)cc2)c1C quantitative_readout=7.89
chem_smiles=Clc1ccc(Nc2ccc([C@H]3O[C@@H]4CN[C@H]3C4)cc2)nc1 quantitative_readout=8.39

Dear colleague, could you please provide pKi for the compounds listed below?
1. c1ccc([C@H]2O[C@@H]3CN[C@H]2C3)nc1
2. O=C(Nc1ccc([C@@H]2O[C@H]3CN[C@@H]2C3)cc1)c1ccnc(C(F)(F)F)n1
3. CCCc1c(Cl)c(C(=O)Nc2ccc([C@H]3O[C@@H]4CN[C@H]3C4)cc2)nn1C
4. Fc1ccc(CNc2ccc([C@H]3O[C@@H]4CN[C@H]3C4)cc2)cc1
5. CCOc1ccc(NC(=O)c2ccc([C@@H]3O[C@H]4CN[C@@H]3C4)cc2)cc1
6. O=C(Nc1ccc([C@@H]2O[C@H]3CN[C@@H]2C3)cc1)c1ccnc(C(F)(F)F)c1

[7.33, 7.57, 7.94, 6.20, 7.59, 7.65]
